System: ATF4 in CCRF-CEM leukemia cells (PERK)
Assay: CCRF-CEM TG ATF4 ELISA, phenotypic assay for cellular inhibition of PERK preactivated by thapsigargin
Format: cell-based
Conditions: Homo sapiens; Thapsigargin (1 μM) stimulated CCRF-CEM cells
# Lookup of reported IC50 keyed by entry

Guide cases for IC50, answers given:
COc1nc2nc(N)ncc2cc1-c1cccc(NS(=O)(=O)c2cc(Cl)cnc2OC)c1F; 1000 to 10000 nM
CNc1cc2nc(N)c(-c3cccc(NS(=O)(=O)c4cc(Cl)cnc4OC)c3F)cc2cn1; ≤ 100 nM
COc1ncc(Cl)cc1S(=O)(=O)Nc1cccc(-c2cc3cnc(NC(C)=O)cc3nc2C)c1F; 100 to 500 nM

Query: IC50; subject: `CNc1ncc2cc(-c3cccc(NS(=O)(=O)c4cc(Cl)cnc4OC)c3F)c(NC)nc2n1` 1000 to 10000 nM

* * *

IC50, PERK kinase (Homo sapiens (Human)), per-entry values.

CNc1ncc2cc(-c3cccc(NS(=O)(=O)c4cc(Cl)cnc4OC)c3C#N)c(C)nc2n1; 100 to 500 nM
COc1ncc(Cl)cc1S(=O)(=O)Nc1cc(F)cc(-c2cnc3nc(N)ncc3c2)c1; 1000 to 10000 nM
CNc1nc2nc(NC3CCCC3)ncc2cc1-c1cccc(NS(=O)(=O)c2cc(Cl)cnc2OC)c1F; 100 to 500 nM

API: value(readout= IC50, system= PERK kinase (Homo sapiens (Human)), query= `CNc1ncc2cc(-c3cc(F)cc(NS(=O)(=O)c4cc(Cl)cnc4OC)c3)c(NCCOC)nc2n1` ) 1000 to 10000 nM

API: value(readout= IC50, system= PERK kinase (Homo sapiens (Human)), query= `CNc1ncc2cc(-c3cccc(NS(=O)(=O)c4cc(Cl)cnc4OC)c3)c(NC)nc2n1` ) 100 to 500 nM

API: value(readout= IC50, system= PERK kinase (Homo sapiens (Human)), query= `CNc1ncc2cc(-c3cc(NS(=O)(=O)c4cc(Cl)cnc4OC)ccc3OC)ccc2n1` ) 1000 to 10000 nM

API: value(readout= IC50, system= PERK kinase (Homo sapiens (Human)), query= `CNc1nc2nc(N)ncc2cc1-c1cc(F)cc(NS(=O)(=O)c2cc(Cl)cnc2OC)c1` ) 100 to 500 nM

API: value(readout= IC50, system= PERK kinase (Homo sapiens (Human)), query= `CNc1ncc2cc(-c3cccc(NS(=O)(=O)c4cc(Cl)c[nH]c4=O)c3F)c(NC)nc2n1` ) 1000 to 10000 nM

* * *

IC50, GCN2 kinase (Homo sapiens (Human), UniProt Q9P2K8), per-entry values.

CNc1ncc2cc(-c3cccc(NS(=O)(=O)c4cc(Cl)cnc4OC)c3F)c(NCCO)nc2n1; ≤ 100 nM
CNc1ncc2cc(-c3cc(NS(=O)(=O)c4cc(Cl)cnc4OC)ccc3C(F)(F)F)c(C)nc2n1; 500 to 1000 nM
CNc1ncc2cc(-c3cccc(NS(=O)(=O)c4cc(Cl)cc(C(=O)OC)c4Cl)c3F)c(NC)nc2n1; ≤ 100 nM
CNc1cc2nc(C)c(-c3cc(NS(=O)(=O)c4cc(Cl)cnc4OC)c(F)cc3Br)cc2cn1; 500 to 1000 nM
CNc1nc2nc(N)ncc2cc1-c1ccnc(NS(=O)(=O)c2cc(Cl)cnc2OC)c1F; 100 to 500 nM
CNc1ncc2cc(-c3ccnc(NS(=O)(=O)c4cc(Cl)cnc4OC)c3F)c(NC)nc2n1; 100 to 500 nM
CNc1ncc2cc(-c3cccc(NS(=O)(=O)c4cccnc4OC)c3F)c(NC)nc2n1; 100 to 500 nM
CNc1ncc2cc(-c3cccc(NS(=O)(=O)c4cc(Cl)cnc4OC)c3C(F)(F)F)ccc2n1; 100 to 500 nM
CNc1cc2nc(C)c(-c3cccc(NS(=O)(=O)c4cc(Cl)cnc4OC)c3Cl)cc2cn1; ≤ 100 nM
CNc1ncc2cc(-c3cccc(NS(=O)(=O)c4cc(OC)c(Cl)cc4OC)c3F)c(NC)nc2n1; 500 to 1000 nM

# next compound below
API: value(readout= IC50, system= GCN2 kinase (Homo sapiens (Human), UniProt Q9P2K8), query= `CNc1ncc2cc(-c3cc(NS(=O)(=O)c4cc(Cl)cnc4OC)ccc3F)c(NC)nc2n1` ) ≤ 100 nM

* * *

pIC50: −log10 of the molar value.
pIC50, PERK kinase (Homo sapiens (Human), UniProt Q9NZJ5), per-entry values.

Guide cases for pIC50, answers given:
CNc1ncc2cc(-c3cccc(NS(=O)(=O)c4cc(Cl)cc(C(=O)OC)c4Cl)c3F)c(NC)nc2n1; 6.30 to 7.00
CNc1ncc2cc(-c3cc(NS(=O)(=O)c4cc(Cl)cnc4OC)ccn3)ccc2n1; 5.00 to 6.00
CNc1ncc2cc(-c3cccc(NS(=O)(=O)c4ccc(OC)c(C)c4)c3F)ccc2n1; 6.30 to 7.00

# next compound below
API: value(readout= pIC50, system= PERK kinase (Homo sapiens (Human), UniProt Q9NZJ5), query= `CNc1ncc2cc(-c3cccc(NS(=O)(=O)c4cc(Cl)cnc4OC)c3F)c(OCCOC)nc2n1` ) 6.30 to 7.00

* * *

pIC50, GCN2 kinase (Homo sapiens (Human), UniProt Q9P2K8), per-entry values.
pIC50: −log10 of the molar value.

Guide cases for pIC50, answers given:
COc1ncc(Cl)cc1S(=O)(=O)Nc1cccc(-c2cnc3nc(Nc4cnn(C)c4)ncc3c2)c1 [Example 59]; ≥ 7.00
CNc1ncc2cc(-c3cc(NS(=O)(=O)c4cccnc4)c(F)cc3C)c(C)nc2n1 [Example 1]; 5.00 to 6.00
CNc1ncc2cc(-c3cccc(NS(=O)(=O)c4ncccc4OC)c3F)c(NC)nc2n1 [Example 166]; 5.00 to 6.00
CNc1cc2nc(OC)c(-c3cccc(NS(=O)(=O)c4cc(Cl)cnc4OC)c3F)cc2cn1 [Example 129]; ≥ 7.00
CNc1ncc2cc(-c3cccc(NS(=O)(=O)c4cc(Cl)cnc4OC)c3F)ccc2n1 [Example 36]; ≥ 7.00
COc1ncc(Cl)cc1S(=O)(=O)Nc1cccc(-c2ccc3cc(N)ncc3c2)c1F [Example 29]; 6.30 to 7.00

API: value(readout= pIC50, system= GCN2 kinase (Homo sapiens (Human), UniProt Q9P2K8), query= CNc1ncc2cc(-c3cc(F)cc(NS(=O)(=O)c4cc(Cl)cc(CO)c4Cl)c3)c(NC)nc2n1 [Example 57] ) ≥ 7.00

API: value(readout= pIC50, system= GCN2 kinase (Homo sapiens (Human), UniProt Q9P2K8), query= CNc1ncc2cc(-c3cccc(NS(=O)(=O)c4cc(Cl)cc(C(C)(C)O)c4Cl)c3F)c(NC)nc2n1 [Example 74] ) 6.30 to 7.00

API: value(readout= pIC50, system= GCN2 kinase (Homo sapiens (Human), UniProt Q9P2K8), query= CNc1ncc2cc(-c3cccc(NS(=O)(=O)c4cc(Cl)cnc4OC)c3Cl)ccc2n1 [Example 62] ) ≥ 7.00

API: value(readout= pIC50, system= GCN2 kinase (Homo sapiens (Human), UniProt Q9P2K8), query= CNc1ncc2cc(-c3cccc(NS(=O)(=O)c4cc(C(C)=O)ccc4Cl)c3F)c(NC)nc2n1 [Example 133] ) 6.30 to 7.00

API: value(readout= pIC50, system= GCN2 kinase (Homo sapiens (Human), UniProt Q9P2K8), query= CNc1ncc2cc(-c3cc(F)cc(NS(=O)(=O)c4cc(Cl)cnc4OC)c3)c(NC[C@@H](C)OC)nc2n1 [Example 107] ) 6.00 to 6.30

API: value(readout= pIC50, system= GCN2 kinase (Homo sapiens (Human), UniProt Q9P2K8), query= CNc1ncc2cc(-c3cccc(NS(=O)(=O)c4cccc(CO)c4Cl)c3F)c(NC)nc2n1 [Example 151] ) ≥ 7.00

* * *

Target: PERK kinase (Homo sapiens (Human))
Sequence (Q9NZJ5 other isoform, or with tags, fused parts or gaps): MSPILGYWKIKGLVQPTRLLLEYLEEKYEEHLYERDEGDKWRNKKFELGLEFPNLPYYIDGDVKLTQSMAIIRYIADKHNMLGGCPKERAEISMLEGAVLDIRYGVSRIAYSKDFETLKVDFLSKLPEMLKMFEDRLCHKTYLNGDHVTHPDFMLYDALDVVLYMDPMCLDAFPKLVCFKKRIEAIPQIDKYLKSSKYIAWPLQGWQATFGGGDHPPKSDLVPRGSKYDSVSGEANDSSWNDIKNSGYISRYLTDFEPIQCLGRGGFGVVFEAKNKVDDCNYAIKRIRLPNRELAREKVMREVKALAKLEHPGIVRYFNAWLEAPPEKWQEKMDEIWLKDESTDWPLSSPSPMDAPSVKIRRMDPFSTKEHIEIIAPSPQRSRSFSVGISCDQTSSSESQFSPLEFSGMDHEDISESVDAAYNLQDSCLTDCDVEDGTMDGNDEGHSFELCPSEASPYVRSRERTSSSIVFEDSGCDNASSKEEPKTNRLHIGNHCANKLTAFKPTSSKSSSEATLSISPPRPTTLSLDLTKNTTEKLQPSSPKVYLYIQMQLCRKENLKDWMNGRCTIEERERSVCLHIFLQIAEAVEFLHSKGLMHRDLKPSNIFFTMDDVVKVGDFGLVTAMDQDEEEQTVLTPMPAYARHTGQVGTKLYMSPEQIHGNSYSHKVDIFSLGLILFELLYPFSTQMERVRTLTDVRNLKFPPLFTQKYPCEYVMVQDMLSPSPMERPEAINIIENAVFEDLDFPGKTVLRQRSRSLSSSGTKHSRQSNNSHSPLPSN
pIC50: −log10 of the molar value.
# Lookup of reported pIC50 keyed by entry

CNc1nc2nc(NCC(F)(F)F)ncc2cc1-c1cccc(NS(=O)(=O)c2cc(Cl)cnc2OC)c1F [Example 116]; 6.30 to 7.00
CNc1cc2nc(NC)c(-c3cccc(NS(=O)(=O)c4cc(Cl)cnc4OC)c3Cl)cc2cn1 [Example 113]; 6.30 to 7.00
CNc1cc2nc(C)c(-c3cc(NS(=O)(=O)c4cc(Cl)cnc4OC)ccc3F)cc2cn1 [Example 44]; ≥ 7.00
CNc1cc2nc(C)c(-c3cc(F)cc(NS(=O)(=O)c4cc(Cl)cnc4OC)c3)cc2cn1 [Example 23]; ≥ 7.00
CNc1ncc2cc(-c3cc(NS(=O)(=O)c4cc(Cl)cnc4OC)ccc3C)cnc2n1 [Example 30]; 6.30 to 7.00

API: value(readout= pIC50, system= PERK kinase (Homo sapiens (Human)), query= CNc1ncc2cc(-c3cc(NS(=O)(=O)c4cc(Cl)cnc4OC)c(F)cc3F)c(NC)nc2n1 [Example 13] ) 5.00 to 6.00

API: value(readout= pIC50, system= PERK kinase (Homo sapiens (Human)), query= CNc1cnc(OC)c(S(=O)(=O)Nc2cccc(-c3cc4cnc(NC)cc4nc3C)c2F)c1 [Example 162] ) 6.30 to 7.00

API: value(readout= pIC50, system= PERK kinase (Homo sapiens (Human)), query= CNc1ncc2cc(-c3cccc(NS(=O)(=O)c4cc(Cl)cnc4OC)c3F)c(NC3COC3)nc2n1 [Example 98] ) 6.00 to 6.30

API: value(readout= pIC50, system= PERK kinase (Homo sapiens (Human)), query= CNc1ncc2cc(-c3cccc(NS(=O)(=O)c4ncccc4OC)c3F)c(NC)nc2n1 [Example 166] ) 5.00 to 6.00

API: value(readout= pIC50, system= PERK kinase (Homo sapiens (Human)), query= CNc1ncc2cc(-c3cccc(NS(=O)(=O)c4cc(C#N)ccc4OC)c3F)c(NC)nc2n1 [Example 145] ) 6.00 to 6.30

API: value(readout= pIC50, system= PERK kinase (Homo sapiens (Human)), query= CNc1cc2nc(C)c(-c3ccc(F)c(NS(=O)(=O)c4cc(Cl)cnc4OC)c3)cc2cn1 [Example 7] ) 6.30 to 7.00

API: value(readout= pIC50, system= PERK kinase (Homo sapiens (Human)), query= CNc1ncc2cc(-c3cccc(NS(=O)(=O)c4cc(C(C)=O)ccc4Cl)c3F)c(NC)nc2n1 [Example 133] ) 6.30 to 7.00

API: value(readout= pIC50, system= PERK kinase (Homo sapiens (Human)), query= CNc1ncc2cc(-c3cccc(NS(=O)(=O)c4cc(Cl)cnc4OC)c3F)c(N)nc2n1 [Example 61] ) ≥ 7.00

API: value(readout= pIC50, system= PERK kinase (Homo sapiens (Human)), query= CNc1ncc2cc(-c3cc(NS(=O)(=O)c4cc(Cl)cnc4OC)ccc3C(F)(F)F)c(C)nc2n1 [Example 80] ) 5.00 to 6.00

API: value(readout= pIC50, system= PERK kinase (Homo sapiens (Human)), query= CNc1ncc2cc(-c3cccc(NS(=O)(=O)c4cc(Cl)cnc4OC)c3F)c(OC)cc2n1 [Example 159] ) ≥ 7.00

API: value(readout= pIC50, system= PERK kinase (Homo sapiens (Human)), query= CNc1ncc2cc(-c3cc(NS(=O)(=O)c4cc(Cl)cnc4OC)c(C)cc3F)c(C)nc2n1 [Example 21] ) 5.00 to 6.00

Reference source for all entries: patent US11912668B2
